Provenance of the data: ChEMBL document CHEMBL3259743

Molecular target: Steroid 17-alpha-hydroxylase/17,20 lyase (Homo sapiens, UniProt P05093)
Sequence (P05093 whole entry): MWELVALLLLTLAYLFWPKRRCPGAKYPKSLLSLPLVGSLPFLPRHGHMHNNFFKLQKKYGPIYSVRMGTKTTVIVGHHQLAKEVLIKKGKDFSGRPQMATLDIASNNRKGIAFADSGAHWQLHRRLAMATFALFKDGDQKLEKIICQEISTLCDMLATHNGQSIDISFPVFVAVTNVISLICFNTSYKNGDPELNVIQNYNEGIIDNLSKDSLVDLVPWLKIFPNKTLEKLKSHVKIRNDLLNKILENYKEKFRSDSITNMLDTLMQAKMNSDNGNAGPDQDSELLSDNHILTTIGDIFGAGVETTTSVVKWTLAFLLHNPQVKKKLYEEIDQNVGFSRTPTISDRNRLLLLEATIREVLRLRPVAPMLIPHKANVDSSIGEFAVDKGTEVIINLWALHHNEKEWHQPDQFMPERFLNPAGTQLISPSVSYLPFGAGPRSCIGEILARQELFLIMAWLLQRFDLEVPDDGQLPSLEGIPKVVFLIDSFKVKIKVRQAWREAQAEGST
Experiment: Inhibition of human recombinant CYP17 lyase activity using 17alpha-hydroxypregnenolone as substrate by HPLC/MS/MS method
Parameter log10 of IC50: see the listing below.
observed-property: log10 of IC50 (log10 of the value in nM)

{"columns": ["compound", "system-name", "log10 of IC50"],
 "data": [
  ["COc1cc2ccc(C(O)(c3c[nH]cn3)C(C)C)cc2cc1OC (racemic)", "Steroid 17-alpha-hydroxylase/17,20 lyase (Homo sapiens, UniProt P05093)", 1.70],
  ["CC(C)C(O)(c1ccc2cc(OCC(F)(F)F)c(OCC(F)(F)F)cc2c1)c1c[nH]nn1 (racemic)", "Steroid 17-alpha-hydroxylase/17,20 lyase (Homo sapiens, UniProt P05093)", 2.49],
  ["CC(C)C(O)(c1ccc2cc(OC(F)F)ccc2c1)c1c[nH]nn1 (racemic)", "Steroid 17-alpha-hydroxylase/17,20 lyase (Homo sapiens, UniProt P05093)", 2.52],
  ["COc1cc2ccc(C(O)(c3c[nH]nn3)C(C)C)cc2cc1OC (racemic)", "Steroid 17-alpha-hydroxylase/17,20 lyase (Homo sapiens, UniProt P05093)", 2.26],
  ["CC(C)C(O)(c1ccc2cc(OCC(F)(F)F)ccc2c1)c1c[nH]nn1 (racemic)", "Steroid 17-alpha-hydroxylase/17,20 lyase (Homo sapiens, UniProt P05093)", 2.76],
  ["CC(C)C(O)(c1ccc2cc(OC(F)F)c(OC(F)F)cc2c1)c1c[nH]nn1 (racemic)", "Steroid 17-alpha-hydroxylase/17,20 lyase (Homo sapiens, UniProt P05093)", 2.23],
  ["CC(C)C(O)(c1ccc2cc(-c3cnco3)ccc2c1)c1c[nH]nn1 (racemic)", "Steroid 17-alpha-hydroxylase/17,20 lyase (Homo sapiens, UniProt P05093)", 2.97]
]}

###

Tested on: CYP3A4 versus CYP17 lyase
Test: Selectivity ratio of IC50 for human hepatocyte microsome CYP3A4 to IC50 for rat testicular microsome CYP17 lyase activity

{"columns": ["molecule", "selectivity ratio"],
 "data": [
  ["COc1cc2ccc(C(O)(c3c[nH]nn3)C(C)C)cc2cc1OC (racemic)", 317]
]}

###

Target: Steroid 17-alpha-hydroxylase/17,20 lyase (Rattus norvegicus, UniProt P11715)
Sequence (P11715 whole entry): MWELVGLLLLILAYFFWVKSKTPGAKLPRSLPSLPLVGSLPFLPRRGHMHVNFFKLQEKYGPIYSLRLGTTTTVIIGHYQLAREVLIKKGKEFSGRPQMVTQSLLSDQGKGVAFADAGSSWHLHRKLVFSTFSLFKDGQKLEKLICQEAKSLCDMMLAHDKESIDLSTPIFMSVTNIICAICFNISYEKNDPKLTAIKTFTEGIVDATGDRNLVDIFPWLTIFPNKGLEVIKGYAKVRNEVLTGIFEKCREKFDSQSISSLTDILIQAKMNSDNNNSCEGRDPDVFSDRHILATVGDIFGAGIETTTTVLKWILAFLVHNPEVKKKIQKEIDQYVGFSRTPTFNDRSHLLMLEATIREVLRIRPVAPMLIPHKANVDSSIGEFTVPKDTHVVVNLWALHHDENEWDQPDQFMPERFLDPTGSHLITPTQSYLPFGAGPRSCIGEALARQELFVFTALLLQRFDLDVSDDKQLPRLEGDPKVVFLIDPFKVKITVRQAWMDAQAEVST
Test: Inhibition of rat testicular microsome CYP17 lyase activity using 17alpha-hydroxypregnenolone as substrate by HPLC/MS/MS method
pIC50: −log10 of the molar value.
Where pIC50 equals or exceeds 6, the correct label is yes; where it does not, the label is no.

{"columns": ["compound", "label"],
 "data": [
  ["COc1cc2ccc(C(O)(c3cn[nH]c3)C(C)C)cc2cc1OC (racemic)", "yes"],
  ["COc1cc2ccc(C(O)(c3cc[nH]n3)C(C)C)cc2cc1OC (racemic)", "no"],
  ["COc1cc2ccc(C(O)(c3ccncc3)C(C)C)cc2cc1OC (racemic)", "yes"],
  ["COc1cc2ccc(C(O)(c3nc[nH]n3)C(C)C)cc2cc1OC (racemic)", "no"],
  ["COc1cc2ccc(C(O)(c3cccnc3)C(C)C)cc2cc1OC (racemic)", "no"],
  ["COc1cc2ccc(C(O)(c3c[nH]cn3)C(C)C)cc2cc1OC (racemic)", "yes"],
  ["COc1cc2ccc(C(O)(c3cnco3)C(C)C)cc2cc1OC (racemic)", "yes"]
]}
